Experiment: Ketose 3-epimerase activity ratio (T70/T50) at reaction temperature of 70° C. to 50° C.
Format: biochemical
Conditions: crude recombinant enzyme; ratio of activity at 70° C. to activity at 50° C., 10 min reaction
quantity-measured: T70/T50
Simply state the number, no unit and no words.

>  <molecule>
Ketose 3-epimerase mutant 24: amino acid-substituted mutant of SEQ ID NO: 1 (protein, Arthrobacter histidinolovorans) MKIGCHGLVWTGRFDAEGIRYSVQKTKEAGFDLIEFPLMDPFSFDVATAKSALAEHGLTASASLGLSEATDVSSEDPAIVKAGEELLNRALDVLAELGATDFCGVIYSAMKKYMEPATEQGLSNSKAAVGRVVDRAAGLGINVSLEVVNRYETNVLNTGRQALSYLQDVKRPNLGVHLDTYHMNIEESDMFSPVLDTAEALKYVHIGESHRGYLGTGSVDFDNFFKALGRIGYDGPVVFESFSSAVVAPDLSRMLGIWRNLWADNEELGAHANAFIRDKLTAIKTIELH

>  <result-number>
1.68

$$$$
>  <molecule>
Ketose 3-epimerase mutant 4: amino acid-substituted mutant of SEQ ID NO: 1 (protein, Arthrobacter histidinolovorans) MKIGCHGLVWTGRFDAEGIRYSVQKTKEAGFDLIEFPLMDPFSFDVATAKSALAEHGLSVSASLGLSEATDVSSEDPAIVKAGEELLNRALDVLAELGATDFCGVIYSAMKKYMEPATEQGLSNSKAAVGRVVDRAAGLGINVSLEVVNRYETNVLNTGRQALSYLSDVKRPNLGVHLDTYHMNIEESDMFSPVLDTAEVLKYVHIGESHRGYLGTGNVDFDNFFKALGRIGYDGPVVFESFSSAVVAPDLSRMLGIWRNLWADNEELGAHANAFIRDKLTAIKTIELH

>  <result-number>
2.08

$$$$
>  <molecule>
Ketose 3-epimerase mutant 7: amino acid-substituted mutant of SEQ ID NO: 1 (protein, Arthrobacter histidinolovorans) MKIGCHGLVWTGRFDAEGIRYSVQKTKEAGFDLIEFPLMDPFSFDVATAKSALAEHGLSVSASLGLSEATDVSSEDPAIVKAGEELLNRALDVLAELGATDFCGVIYSAMKKYMEPATEQGLSNSKAAVGRVVDRAAGLGINVSLEVVNRYETNVLNTGRQALSYLSDVKRPNLGVHLDTYHMNIEESDMFSPVLDTAEVLKYVHIGESHRGYLGTGSVDFDNFFKALGRIGYDGPVVFESFSSAVVAPDLSRMLGIWRNLWADNEELGAHANAFIRDKLTAIKTIELH

>  <result-number>
2.03

$$$$

Please turn your attention to the following entry.
-- ask I'd like to know its T70/T50. The molecule in question is Ketose 3-epimerase mutant 9: amino acid-substituted mutant of SEQ ID NO: 1 (protein, Arthrobacter histidinolovorans) MKIGCHGLVWTGRFDAEGIRYSVQKTKEAGFDLIEFPLMDPFSFDVATAKSALAEHGLSVSASLGLSEATDVSSEDPAIVKAGEELLNRALDVLAELGATDFCGVIYSAMKKYMEPATEQGLSNSKAAVGRVVDRAAGLGINVSLEVVNRYETNVLNTGRQALSYLSDVKRPNLGVHLDTYHMNIEESDMFSPVLDTAEALKYVHIGESHRGYLGTGSVDFDNFFKALGRIGYDGPVVFESFSSAVVAPDLSRMLGIWRNLWADNEELGAHANAFIRDKLTAIKTIELH
-- reply 2.01
